System: FER
procedureSummary: KINOMEscan kinase binding assay
experimentalContext: at 1 μM
endpoint: % Ctrl (%)
Answer with a number only, understood to be in %.

Use the examples below as a reference point.
compound: Cc1cc2c([nH]1)/C=C1\C(=O)Nc3c(Cl)cc(cc31)-c1cn(C)nc1COC[C@@H](C)NC2=O [Cpd. 3]
unit: %
% Ctrl: 73

compound: Cc1cc2c([nH]1)/C=C1\C(=O)Nc3ccc(cc31)-c1c(nn(C)c1C)COCCN(C)C2=O [Cpd. 2]
unit: %
% Ctrl: 100

compound: C[C@@H]1COCc2nn(C)cc2-c2cc(Cl)c3c(c2)/C(=C/c2[nH]ccc2C(=O)N1)C(=O)N3 [Cpd. 4]
unit: %
% Ctrl: 68

compound: Cc1cc2c([nH]1)/C=C1\C(=O)Nc3ccc(cc31)-c1c(nn(C)c1C)OCCCN(C)C2=O [Cpd. 1]
unit: %
% Ctrl: 97

From here, focus on the item given below.
Quick one: % Ctrl of Cc1cc2c([nH]1)/C=C1\C(=O)Nc3c(Cl)cc(cc31)-c1cn(C)nc1COC[C@@H](C)N(C)C2=O [Cpd. 5] ?
68

----------
Test system: EPHA8
procedureSummary: KINOMEscan kinase binding assay
experimentalContext: at 1 μM
Procedure: Kinase binding assays were performed at Eurofins/DiscoveRx using the general KINOMEscan Protocol (Fabian, M. A. et al., “A small molecule-kinase interaction map for clinical kinase inhibitors,” Nat. Biotechnol. 2005, 23(3):329-36). […] The kinase concentration in the eluates was measured by qPCR. […] Dissociation constants (Kds) for test compound-kinase interactions were calculated by measuring the amount of kinase captured on the solid support as a function of the test compound concentration.
Catalogue of compounds with associated % Ctrl
Answer with a number only, understood to be in %.

Use the examples below as a reference point.
compound: C[C@@H]1COCc2nn(C)cc2-c2cc(Cl)c3c(c2)/C(=C/c2[nH]ccc2C(=O)N1)C(=O)N3 [Cpd. 4]
target: EPHA8
endpoint: % Ctrl
measured: 82
--
compound: Cc1cc2c([nH]1)/C=C1\C(=O)Nc3ccc(cc31)-c1c(nn(C)c1C)OCCCN(C)C2=O [Cpd. 1]
target: EPHA8
endpoint: % Ctrl
measured: 100
--
compound: Cc1cc2c([nH]1)/C=C1\C(=O)Nc3c(Cl)cc(cc31)-c1cn(C)nc1COC[C@@H](C)N(C)C2=O [Cpd. 5]
target: EPHA8
endpoint: % Ctrl
measured: 77
--
compound: Cc1cc2c([nH]1)/C=C1\C(=O)Nc3ccc(cc31)-c1c(nn(C)c1C)COCCN(C)C2=O [Cpd. 2]
target: EPHA8
endpoint: % Ctrl
measured: 92

From here, focus on the item given below.
Form: Entry = Cc1cc2c([nH]1)/C=C1\C(=O)Nc3c(Cl)cc(cc31)-c1cn(C)nc1COC[C@@H](C)NC2=O [Cpd. 3] | System = EPHA8 | % Ctrl = ____
90

----------
Test system: RET(V804M)
procedureSummary: KINOMEscan kinase binding assay
experimentalContext: at 1 μM
Catalogue of compounds with associated % Ctrl
Answer with a number only, understood to be in %.

compound: C[C@@H]1COCc2nn(C)cc2-c2cc(Cl)c3c(c2)/C(=C/c2[nH]ccc2C(=O)N1)C(=O)N3 [Cpd. 4]
target: RET(V804M)
unit: %
measured: 90

compound: Cc1cc2c([nH]1)/C=C1\C(=O)Nc3c(Cl)cc(cc31)-c1cn(C)nc1COC[C@@H](C)NC2=O [Cpd. 3]
target: RET(V804M)
unit: %
measured: 100

compound: Cc1cc2c([nH]1)/C=C1\C(=O)Nc3c(Cl)cc(cc31)-c1cn(C)nc1COC[C@@H](C)N(C)C2=O [Cpd. 5]
target: RET(V804M)
unit: %
measured: 90

compound: Cc1cc2c([nH]1)/C=C1\C(=O)Nc3ccc(cc31)-c1c(nn(C)c1C)OCCCN(C)C2=O [Cpd. 1]
target: RET(V804M)
unit: %
measured: 100

From here, focus on the item given below.
Quick one: % Ctrl of Cc1cc2c([nH]1)/C=C1\C(=O)Nc3ccc(cc31)-c1c(nn(C)c1C)COCCN(C)C2=O [Cpd. 2] ?
77
